Hello, the source for this data is patent US20100160397A1, in case you need it.

# systemTested: human DGAT1 (Homo sapiens, UniProt O75907)
# Sequence (O75907 whole entry): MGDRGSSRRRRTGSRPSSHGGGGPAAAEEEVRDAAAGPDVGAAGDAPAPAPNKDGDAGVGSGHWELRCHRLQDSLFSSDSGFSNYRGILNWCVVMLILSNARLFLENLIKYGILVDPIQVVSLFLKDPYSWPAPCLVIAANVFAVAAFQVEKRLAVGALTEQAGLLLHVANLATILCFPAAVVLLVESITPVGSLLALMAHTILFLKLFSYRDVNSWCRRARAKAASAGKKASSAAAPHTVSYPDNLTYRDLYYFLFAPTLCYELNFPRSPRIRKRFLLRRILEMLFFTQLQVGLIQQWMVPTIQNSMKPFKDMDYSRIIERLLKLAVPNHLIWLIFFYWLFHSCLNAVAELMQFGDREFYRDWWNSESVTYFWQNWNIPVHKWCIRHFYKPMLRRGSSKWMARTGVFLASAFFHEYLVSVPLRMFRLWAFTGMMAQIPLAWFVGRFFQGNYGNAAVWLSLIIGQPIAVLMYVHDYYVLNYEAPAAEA
propertyLabel: IC50 (µM)
One number for each entry, in µM.

Q: Find the recorded IC50 belonging to "COC(=O)C[C@H]1CC[C@H](c2ccc(NC(=O)c3coc(Nc4ccc(F)c(F)c4)n3)cc2)CC1" and report it.
Result: 32
